- ASSAY_SUMMARY: PSAC antagonists in infected red cells, primary screen, cell-based, P. falciparum Indochina, OD700, 1 h (AID 1154)
- MEASUREMENT_PARAMETERS: P. falciparum Indochina infected RBC osmotic lysis, higher = more signal, called active from +8 up or from −8 down
Task for the reader: assign each of the following compounds its reported z-score.
I'd appreciate a reply containing only the number, no unit.

query: Give the measured z-score for `CCCCC=C[C@@H](NC(=O)c1ccco1)c1ccccc1`
result: 1.02

query: Give the measured z-score for `C=C[C@@H](COC(C)=O)N(Cc1ccc([N+](=O)[O-])cc1)S(=O)(=O)c1ccc(Br)cc1`
result: 7.66

query: Give the measured z-score for `CCCCCCc1nc(CCCc2cc3c(c(CCCCCC)n2)[Si](C(C)C)(C(C)C)OC3)cc2c1[Si](C(C)C)(C(C)C)OC2`
result: 0.611

query: Give the measured z-score for `CC(C)N1C(=O)[C@@]2(c3ccc([N+](=O)[O-])cc3)CC(=O)N(CC34CC5CC(CC(C5)C3)C4)[C@@H]2c2ccc(CO)cc21`
result: 0.297
